Numbers sourced from paper PMC4667193.

assayedSystem: Rat M3 mAChR (Rattus norvegicus, UniProt P08483)
Sequence (P08483 whole entry): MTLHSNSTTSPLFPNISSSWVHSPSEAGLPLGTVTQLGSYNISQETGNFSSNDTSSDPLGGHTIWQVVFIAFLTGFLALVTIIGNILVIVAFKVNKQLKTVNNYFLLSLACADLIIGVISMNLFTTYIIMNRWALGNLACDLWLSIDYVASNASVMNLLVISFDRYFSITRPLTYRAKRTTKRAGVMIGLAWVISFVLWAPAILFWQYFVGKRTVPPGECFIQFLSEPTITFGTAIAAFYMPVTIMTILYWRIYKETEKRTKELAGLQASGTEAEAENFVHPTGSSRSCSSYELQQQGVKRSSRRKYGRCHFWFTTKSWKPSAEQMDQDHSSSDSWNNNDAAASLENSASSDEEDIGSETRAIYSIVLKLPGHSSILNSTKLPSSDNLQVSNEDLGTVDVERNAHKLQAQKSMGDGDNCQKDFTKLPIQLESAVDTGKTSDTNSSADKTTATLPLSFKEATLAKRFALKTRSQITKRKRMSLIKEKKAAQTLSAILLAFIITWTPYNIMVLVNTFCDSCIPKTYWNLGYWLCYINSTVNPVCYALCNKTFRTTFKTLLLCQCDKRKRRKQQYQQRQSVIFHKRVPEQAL
measuredQuantity: Ki (µM)

compound: COC(=O)C1=CC[C@@H]2CC[C@H]1N2C [AEME, anhydroecgonine methyl ester]
assayedSystem: Rat M3 mAChR (Rattus norvegicus, UniProt P08483)
measuredQuantity: Ki
recordedResult: 33.9

###

assayedSystem: Rat M1 mAChR (Rattus norvegicus, UniProt P08482)
runDescription: calcium mobilization assay in CHO cells
conditionSummary: rat M1, agonist mode (single-add)
pEC50: −log10 of the molar value.

compound: COC(=O)C1=CC[C@@H]2CC[C@H]1N2C [AEME, anhydroecgonine methyl ester]
assayedSystem: Rat M1 mAChR (Rattus norvegicus, UniProt P08482)
pEC50: < 4.00

###

assayedSystem: Rat M4 mAChR (Rattus norvegicus, UniProt P08485)
Construct: host or cells: CHO (CHO-K1) cells
Sequence (P08485 1-478): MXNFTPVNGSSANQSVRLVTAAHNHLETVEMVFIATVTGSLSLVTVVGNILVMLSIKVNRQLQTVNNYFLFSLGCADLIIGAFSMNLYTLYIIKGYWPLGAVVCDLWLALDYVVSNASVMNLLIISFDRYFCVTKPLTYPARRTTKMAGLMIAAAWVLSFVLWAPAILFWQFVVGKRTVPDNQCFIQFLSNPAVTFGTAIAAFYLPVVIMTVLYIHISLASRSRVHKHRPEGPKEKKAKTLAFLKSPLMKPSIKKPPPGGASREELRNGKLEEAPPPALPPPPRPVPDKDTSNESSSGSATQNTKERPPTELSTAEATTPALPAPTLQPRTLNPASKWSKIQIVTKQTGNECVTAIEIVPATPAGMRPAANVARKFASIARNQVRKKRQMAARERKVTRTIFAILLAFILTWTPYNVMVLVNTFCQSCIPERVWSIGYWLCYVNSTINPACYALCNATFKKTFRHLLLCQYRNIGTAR
runDescription: [^3H]NMS radioligand competition binding, CHO cell membranes
conditionSummary: rat M4, 0.1 nM [^3H]NMS
measuredQuantity: Ki (µM)

compound: COC(=O)C1=CC[C@@H]2CC[C@H]1N2C [AEME, anhydroecgonine methyl ester]
assayedSystem: Rat M4 mAChR (Rattus norvegicus, UniProt P08485)
recordedResult: 24.5

###

assayedSystem: Rat M1 mAChR (Rattus norvegicus)
Sequence (P08482 1-460): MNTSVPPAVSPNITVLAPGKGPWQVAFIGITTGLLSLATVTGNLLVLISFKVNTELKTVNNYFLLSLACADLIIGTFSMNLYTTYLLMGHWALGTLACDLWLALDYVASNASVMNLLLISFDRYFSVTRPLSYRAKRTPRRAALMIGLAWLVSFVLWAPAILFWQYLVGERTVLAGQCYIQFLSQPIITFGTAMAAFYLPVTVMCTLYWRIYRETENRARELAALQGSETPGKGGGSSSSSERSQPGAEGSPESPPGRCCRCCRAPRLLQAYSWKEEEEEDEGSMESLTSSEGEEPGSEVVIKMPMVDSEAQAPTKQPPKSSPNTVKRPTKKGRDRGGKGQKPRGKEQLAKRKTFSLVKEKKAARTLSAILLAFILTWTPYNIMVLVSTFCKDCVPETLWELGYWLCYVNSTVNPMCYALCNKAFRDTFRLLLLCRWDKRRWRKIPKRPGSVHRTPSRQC
pKi: −log10 of the molar value.
measuredQuantity: pKi

compound: COC(=O)C1=CC[C@@H]2CC[C@H]1N2C [AEME, anhydroecgonine methyl ester]
recordedResult: 4.59
